- System: SNB-75 CNS
- experiment: NCI-60 one-dose screen, 48 h (100 = growth as untreated, 0 = no growth, -100 = all killed)
- details: 10 µM unless noted
- Protocol: Growth inhibition of the SNB-75 human tumor cell line is measured as a screen for anti-cancer activity. Cells are grown in 96 well plates and exposed to the test compound for 48 hours. Compounds are tested at a single concentration, which is 10^-5 M for most compounds. The reported endpoint is percent growth (GI% or GIPRCNT), where numbers from 0 - 100% represent growth inhibition, and numbers from -100% - 0 represent cell death. For example, a value of 40 represents 60% growth inhibition. […]
Compounds without any hit were thinned out: in the full panel of roughly 83,000, 20% have a hit.
measurementKind: growth (%)
Form entry: value (%) — number only.

// known answers, use as guide
CC1CCN(CCCCCOc2ccc3oc4cc(Cl)ccc4c(=O)c3c2)CC1; 74.7
CCOc1ccc(C2N(c3cc(OC)c(OC)c(OC)c3)C(=O)C2(F)F)cc1 (centres undefined); 55.9
C=C(C)[C@@H]1CC[C@]2(C(=O)OCCCC[P+](c3ccccc3)(c3ccccc3)c3ccccc3)CC[C@]3(C)[C@H](CC[C@@H]4[C@@]5(C)CC[C@H](OC(=O)C(Cl)Cl)C(C)(C)[C@@H]5CC[C@]43C)[C@@H]12; -46.6

For the next question, use this molecule.
Using the record for C=C1C(=O)O[C@H]2[C@H]1CC/C(COC(=O)c1cn(C)c3ccccc13)=C\CC[C@@]1(C)O[C@@H]21 , state its measured growth. 59

###

- Tested on: OVCAR-8 ovarian
- experiment: NCI-60 one-dose screen, 48 h (100 = growth as untreated, 0 = no growth, -100 = all killed)
- details: 10 µM unless noted
This is part of a sample that, as a whole, favours compounds with a hit. Of some 83,000 tested, about 20% had one in any assay.
Binarize growth at 90%; below is true, at or above is false.

CCCCc1ccc(N=Nc2ccc(OCC[N+](C)(C)C)cc2)cc1; true
C=C1C(=O)O[C@H]2[C@H]1CC/C(COC(=O)c1c[nH]c3ccccc13)=C\CC[C@@]1(C)O[C@@H]21; true
COc1ccc(/C=C/C(=O)/C=C(/C=C/c2ccc(OC)c(OC)c2)OB(F)F)cc1OC; true
O=C1CC(c2ccc(O)c(O)c2)Oc2cc(O)c([C@@H]3O[C@H](CO)[C@@H](O)[C@H](O)[C@H]3O)c(O)c21 (stereo partly specified); false
N#Cc1ccc(Oc2ccc3ccc(=O)oc3c2)cc1; true
Cc1cc(Cl)cc(CN(Cc2ccccc2)Cc2c(O)ccc3ccccc23)c1O; false
CCCn1cc(/C=N\N=C2\C(=O)Nc3ccc(C)cc32)c2ccccc21; true
CC(/C=C/c1ccccc1)=N/NC(=O)c1ccncc1; false

Field: next molecule
Does the reported growth of the following molecule sit strictly below 90%? COc1ccc(-c2[nH]c3ccccc3c2C=C(C#N)C#N)cc1 true

###

- Tested on: MCF7 breast
- experiment: NCI-60 one-dose screen, 48 h (100 = growth as untreated, 0 = no growth, -100 = all killed)
- details: 10 µM unless noted
The panel holds about 83,000 compounds, 20% with a hit somewhere; the sample as a whole holds those more often.
measurementKind: growth (%)
Form entry: value (%) — number only.

// known answers, use as guide
O=c1nc(-c2ccccc2)c2cc(-c3ccc(N4CCCC4)nc3)ccc2[nH]1; 35.4
NC[C@@H]1CCN(c2cc3c(cc2F)c(=O)n(N)c(=O)n3Cc2ccc(-c3ccccc3)cc2)C1; 79.4
CCSc1ccc(C2C(Br)C(=O)N2c2cc(OC)c(OC)c(OC)c2)cc1 (stereo not given); 13.2
CCOC(=O)C(=Cc1c(-c2ccccc2)[nH]c2ccccc12)C(=O)OCC; 41.6
O=C(O)COc1ccc2c(=O)c3sc4c(=O)c5ccccc5c(=O)c4c3c(=O)c2c1; -57

Using the record for O=C(Nc1ccccc1)NS(=O)(=O)c1c[nH]c(=S)[nH]c1=O , state its measured growth. 100

Using the record for COc1ccccc1N1CCN(CCCOc2ccc(C(=O)/C=C3/C(=O)Nc4ccccc43)cc2)CC1 , state its measured growth. 49.7

Using the record for Cc1c(Cl)cccc1NC(=O)c1sc2nc3c(cc2c1N)CCCCC3 , state its measured growth. 20.8

Using the record for O=C(CCl)N1CCCc2ccccc21 , state its measured growth. 92

Using the record for C#C[C@@]1(O)[C@@H](CO)O[C@@H](n2cc(I)c3c(N)ncnc32)[C@@H]1O , state its measured growth. 1.73

Using the record for C=CCn1c(SCC(=O)Nc2ccc(C(=O)/C=C/c3cc(OC)c(OC)c(OC)c3)cc2)nnc1-c1ccc(Cl)cc1 , state its measured growth. -3.5

Using the record for NCCCn1c2c(c3cc(-c4ccn[nH]4)ccc3c1=O)C(=O)c1ccccc1-2 , state its measured growth. 13

###

- Test system: SW-620 colon
- experiment: NCI-60 one-dose screen, 48 h (100 = growth as untreated, 0 = no growth, -100 = all killed)
- details: 10 µM unless noted
The panel holds about 83,000 compounds, 20% with a hit somewhere; the sample as a whole holds those more often.
measurementKind: growth (%)
Form entry: value (%) — number only.

// known answers, use as guide
Cc1[nH]c2ncnc(Oc3ccc(NC(=O)Nc4ccc(Cl)c(C(F)(F)F)c4)cc3)c2c1C; 77.9
C=C1C(=O)O[C@H]2[C@H]1CC/C(C=Nc1c(N)cc(C(F)(F)F)cc1Br)=C\CC[C@@]1(C)O[C@@H]21; -63.1
O=C(CCCC(=O)Nc1ccc(-n2nnc3cc(Cl)c(Cl)cc32)cc1)Nc1ccc(-n2nnc3cc(Cl)c(Cl)cc32)cc1; 49.6

Using the record for N#CCNc1ccc(C(=O)O)cc1 , state its measured growth. 103

Using the record for Cc1cc(C)c(NC(=O)c2sc3nc4c(cc3c2N)CCCCCC4)c(C)c1 , state its measured growth. 36.2

Using the record for COc1cc(-c2csc(NC(=O)Nc3ccc(C(F)(F)F)cc3)n2)cc(OC)c1OC , state its measured growth. 14.8

Using the record for N#Cc1c(NC(=O)c2cccs2)[n+]([O-])c2cc(C(F)(F)F)ccc2[n+]1[O-] , state its measured growth. 89

Using the record for C=C1C(=O)O[C@H]2[C@H]1CC/C(COC(=O)CCCCC(=O)OC/C1=C/CC[C@@]3(C)O[C@H]3[C@H]3OC(=O)C(=C)[C@@H]3CC1)=C\CC[C@@]1(C)O[C@@H]21 , state its measured growth. 25.1

Using the record for COc1ccccc1Nc1nnc(-c2ccc(Cl)cc2)o1 , state its measured growth. 20.9

###

- Test system: SK-MEL-28 melanoma
- experiment: NCI-60 one-dose screen, 48 h
- details: 10 µM unless noted
The panel holds about 83,000 compounds, 20% with a hit somewhere; the sample as a whole holds those more often. Activity calls are given as the source filed them. The calls were made as follows: active = growth percent below 10; inactive = the rest.
// allowed return values: active, inactive

Solved cases (5 shown):
CCCn1c2cc(OCc3cn(-c4ccc(Br)cc4)nn3)ccc2c2ccnc(C)c21; inactive
COc1cc(-c2cn(-c3ccc(Cl)c(Cl)c3)c(=O)[nH]2)cc(OC)c1OC; inactive
O=CN1N=C(c2ccc3c(c2)OCO3)CC1c1cccc(Nc2ccnc3cc(C(F)(F)F)ccc23)c1 (configuration not stated); inactive
C=C(C)[C@@H]1CC[C@]2(C(=O)O)CC[C@]3(C)[C@H](CC[C@@H]4[C@@]5(C)C[C@@H](CC#Cc6ccccc6C)C(=O)C(C)(C)[C@@H]5CC[C@]43C)[C@@H]12; inactive
Cc1c(Cl)cccc1NC(=O)c1sc2nc3c(cc2c1N)CN(Cc1ccccc1)CC3; inactive

Field: next compound
Check the results log: what was the call for COc1ccccc1N1CCN(CCCOc2ccc(C(=O)/C=C3/C(=O)Nc4ccccc43)cc2)CC1 ? inactive

###

- Tested on: EKVX NSCLC
- experiment: NCI-60 one-dose screen, 48 h
- details: 10 µM unless noted
This is part of a sample that, as a whole, favours compounds with a hit. Of some 83,000 tested, about 20% had one in any assay. Calls of active or inactive are those of the source. The calls were made as follows: active = growth percent below 10; inactive = the rest.
// allowed return values: T (active), F (inactive)

Solved cases (2 shown):
NS(=O)(=O)c1ccc(-n2ncc(NC(=O)Nc3ccc(S(=O)(=O)Nc4nccs4)cc3)c2-c2ccccc2)cc1; F
COc1ccc(/C=C/C(=O)c2ccc(NC(=O)CSc3nnc(-c4ccc(OC)c(OC)c4)n3-c3ccccc3)cc2)cc1; F

Check the results log: what was the call for COc1cc(-c2csc(NC(=O)Nc3ccc(C(F)(F)F)cc3)n2)cc(OC)c1OC ? T

Check the results log: what was the call for Cc1ccc(C2=N[C@H]3CCC[C@@H]3N(c3ccccc3)C(C(Cl)Cl)=N2)cc1 ? F

Check the results log: what was the call for COc1ccc2nc(-c3ccc(OC)c(OC)c3)cc(-c3nnc(SCC(=O)Nc4ccc(C(C)=O)cc4)o3)c2c1 ? F
